Every entry's value here was drawn from patent US10183936B2.

System: AD38 cells
Assay: Viability of AD38 cells (Promega CellTiter-Glo) at the end of compound treatment
Assay type: cell-based
Settings: 10 μM compound, 6 days, luminescence normalized against DMSO control wells (controls being 100%)
Property: AD38 Viability Normalized Result (CPAM/DMSO %) at 10 μM
# unit: % | format: bare number

Recorded AD38 Viability Normalized Result (CPAM/DMSO %) at 10 μM, per entry:
Cc1nnc(CCNC(=O)c2ccc3c(c2)NC(=O)c2ccccc2S3)s1 = 109
Cc1c(C(=O)NCc2cncnc2)ccc2c1NC(=O)c1ccccc1S2 = 94
O=C(Nc1ccc2ncsc2c1)c1ccc2c(c1)NC(=O)c1cc(F)ccc1S2 = 90
C[C@@H](O)CNC(=O)c1ccc2c(c1)NC(=O)c1ccccc1S2 = 106

Now, please, on to the next compound.
Query: Give AD38 Viability Normalized Result (CPAM/DMSO %) at 10 μM for O=C(NCc1ccccc1O)c1ccc2c(c1)NC(=O)c1ccccc1S2
Response: 100

---

System: AD38 cells
Assay: Viability of AD38 cells (Promega CellTiter-Glo) at the end of compound treatment
Assay type: cell-based
Conditions: 10 μM compound, 6 days, luminescence normalized against DMSO control wells (controls being 100%)
Property: AD38 Viability Normalized Result (CPAM/DMSO %) at 10 μM
# unit: % | format: bare number

Recorded AD38 Viability Normalized Result (CPAM/DMSO %) at 10 μM, per entry:
O=C(NCCC(c1ccccc1)N1CCCC1)c1ccc2c(c1)NC(=O)c1ccccc1S2 (centres unmarked) = 94
O=C(NCCc1ccc(-n2cncn2)cc1)c1ccc2c(c1)NC(=O)c1ccccc1S2 = 108
O=C(Nc1ncc(Cl)s1)c1ccc2c(c1)NC(=O)c1cc(F)ccc1S2 = 95
O=C(NCCc1cnco1)c1ccc2c(c1)NC(=O)c1ccccc1[S+]2[O-] (centres unmarked) = 96
CN1C(=O)c2ccccc2Sc2ccc(C(=O)NCc3cccnc3)cc21 = 93

Query: Give AD38 Viability Normalized Result (CPAM/DMSO %) at 10 μM for CN1c2ccc(C(=O)NCCc3ccccn3)cc2NC(=O)c2ccccc21
Response: 82

Query: Give AD38 Viability Normalized Result (CPAM/DMSO %) at 10 μM for O=C(Nc1cccc(-c2cccnc2)c1)c1ccc2c(c1)NC(=O)c1cc(F)ccc1S2
Response: 105

Query: Give AD38 Viability Normalized Result (CPAM/DMSO %) at 10 μM for O=C(NCc1cncnc1)c1ccc2c(c1)NC(=O)c1ccccc1S2
Response: 93

---

System: HBV viral production in AD38 cells
Test: Viral load production in AD38 cells by quantitative PCR of the HBV core sequence in supernatant
Format: cell-based
Settings: Hepatitis B virus, 144 h; 10 μM compound, 6 days at 37° C., viral load in supernatant compared against DMSO control wells; read-out: AD38 Viral Load (CpAM/DMSO %) at 10 μM
Property: activity at 10 µM (%)
# unit: % | format: bare number

O=C(NCc1cncs1)c1ccc2c(c1)NC(=O)c1ccc(F)cc1S2 = 3
O=C(NCc1cnc(Cl)s1)c1ccc2c(c1)NC(=O)c1ccccc1S2 = 1
O=C(NCc1cncs1)c1ccc2c(c1)NC(=O)c1ccccc1O2 = 3
O=C(Nc1nc2ccc(F)cc2s1)c1ccc2c(c1)NC(=O)c1cc(F)ccc1S2 = 70
COC(=O)c1ccc(CCNC(=O)c2ccc3c(c2)NC(=O)c2ccccc2S3)cc1 = 67
O=C(NCCc1ccc(-c2ccccc2)cc1)c1cc2c(cc1F)Sc1ccccc1C(=O)N2 = 39

Query: Give activity at 10 µM for O=C(NCCC(c1ccccc1)N1CCCC1)c1ccc2c(c1)NC(=O)c1ccccc1S2 (centres unmarked)
Response: 14

Query: Give activity at 10 µM for O=C1Nc2cc(S(=O)(=O)Nc3ccc(F)cc3)ccc2Sc2ccccc21
Response: 92

Query: Give activity at 10 µM for O=C(NCCC12CC3CC(CC(C3)C1)C2)c1ccc2c(c1)NC(=O)c1ccccc1S2
Response: 1

Query: Give activity at 10 µM for CN(C)c1ccccc1CNC(=O)c1ccc2c(c1)NC(=O)c1ccccc1S2
Response: 10

Query: Give activity at 10 µM for O=C(Nc1nc2ccc(Cl)cc2s1)c1ccc2c(c1)NC(=O)c1cc(F)ccc1S2
Response: 64

Query: Give activity at 10 µM for O=C(NCCc1cccnc1)c1ccc2c(c1)NC(=O)c1ccccc1N2Cc1ccccc1
Response: 47

Query: Give activity at 10 µM for COC(=O)c1ccc(-c2cccc(NC(=O)c3ccc4c(c3)NC(=O)c3cc(F)ccc3S4)c2)cc1
Response: 29

Query: Give activity at 10 µM for CN1c2ccc(C(=O)NCc3cccnc3)cc2NC(=O)c2ccccc21
Response: 2

Query: Give activity at 10 µM for O=C(NCc1cncs1)c1ccc2c(c1)NC(=O)c1ccccc1S2(=O)=O
Response: 3

Query: Give activity at 10 µM for Cc1ccc2c(c1)Sc1ccc(C(=O)NCCC3CCCCC3)cc1NC2=O
Response: 6

Query: Give activity at 10 µM for CC(=O)N1CCC(CNC(=O)c2ccc3c(c2)NC(=O)c2ccccc2S3)C1 (centres unmarked)
Response: 32

---

Test system: HBV viral production in AD38 cells
Experiment: Viral load production in AD38 cells by quantitative PCR of the HBV core sequence in supernatant
Assay type: cell-based
Conditions: Hepatitis B virus, 144 h; 10 μM compound, 6 days at 37° C., viral load in supernatant compared against DMSO control wells; read-out: AD38 Viral Load (CpAM/DMSO %) at 10 μM
Method: Example 56: Assay Measuring Activity of Compounds on Viral Production in and on Viability of AD38 Cells AD38 cells were then re-suspended with 10 mL of Treatment Medium and counted. […] Viral load production was assayed by quantitative PCR of the core sequence. […] Viral load was quantitated against known standards by using ViiA™ 7 Software. […]
Lab note: compare activity at 10 µM with 10%, writing yes (1) if less and no (0) if equal or more.

Sample answers from the record:
O=C(Nc1ccc(Cl)cc1)c1ccc2c(c1)NC(=O)c1cc(F)ccc1S2 = no (0)
O=C(NCc1cnco1)c1ccc2c(c1)NC(=O)c1ccccc1N2Cc1ccccc1 = no (0)
O=C(Nc1ccncc1)c1ccc2c(c1)NC(=O)c1ccccc1S2 = yes (1)
CC(C)NS(=O)(=O)c1ccc2c(c1)NC(=O)c1ccccc1S2 = no (0)
O=C(NCCc1cccs1)c1ccc2c(c1)NC(=O)c1ccccc1S2 = yes (1)

Query: Here's an entry: Cc1ccccc1CCNC(=O)c1ccc2c(c1)NC(=O)c1ccccc1S2 . Is its activity at 10 µM below 10%?
Response: no (0)

Query: Here's an entry: O=C(NCc1nnc[nH]1)c1ccc2c(c1)NC(=O)c1ccccc1S2 . Is its activity at 10 µM below 10%?
Response: no (0)

---

Tested on: HBV viral production in AD38 cells
Assay: Viral load production in AD38 cells by quantitative PCR of the HBV core sequence in supernatant
Format: cell-based
Details: Hepatitis B virus, 144 h; 10 μM compound, 6 days at 37° C., viral load in supernatant compared against DMSO control wells; read-out: AD38 Viral Load (CpAM/DMSO %) at 10 μM
# Lookup of reported activity at 10 µM keyed by entry
# unit: % | format: bare number

O=C1Nc2cc(S(=O)(=O)NCc3cncnc3)ccc2Sc2ccccc21 [Compound 1473] = 81
O=C(Nc1cccc(-c2cnco2)c1)c1ccc2c(c1)NC(=O)c1cc(F)ccc1S2 [Compound 1386] = 61
Cc1c(C(=O)Nc2ccncc2)ccc2c1NC(=O)c1ccccc1S2 [Compound 1516] = 30
O=C(NCCc1ccccc1)c1ccc2c(c1)NC(=O)c1ccccc1S2 [Compound 1104] = 1
CN(C)CCOc1ccc(CCNC(=O)c2ccc3c(c2)NC(=O)c2ccccc2S3)cc1 [Compound 1154] = 90
Cc1c(C(=O)NCc2cncs2)ccc2c1NC(=O)c1ccccc1S2 [Compound 1513] = 2
O=C(NC[C@H](C(=O)O)c1ccccc1)c1ccc2c(c1)NC(=O)c1ccccc1S2 [Compound 1268] = 77
O=C(NCCc1ccccn1)c1ccc2c(c1)NC(=O)c1ccccc1S2(=O)=O [Compound 1447] = 1

Query: Give activity at 10 µM for CN1C(=O)c2ccccc2Sc2ccc(C(=O)NCc3cccnc3)cc21 [Compound 1553]
Response: 86

Query: Give activity at 10 µM for O=C(NC[C@@H](O)c1ccccc1)c1ccc2c(c1)NC(=O)c1ccccc1S2 [Compound 1226]
Response: 1

Query: Give activity at 10 µM for O=C1Nc2cc(S(=O)(=O)N3CCCC3)ccc2Sc2ccccc21 [Compound 1432]
Response: 79

Query: Give activity at 10 µM for O=C(NC[C@@H](CO)c1ccccc1)c1ccc2c(c1)NC(=O)c1ccccc1S2 [Compound 1259]
Response: 11

---

Test system: HBV viral production in AD38 cells
Test: Viral load production in AD38 cells by quantitative PCR of the HBV core sequence in supernatant
Type: cell-based
Settings: Hepatitis B virus, 144 h; 10 μM compound, 6 days at 37° C., viral load in supernatant compared against DMSO control wells; read-out: AD38 Viral Load (CpAM/DMSO %) at 10 μM
Give MET when the value for activity at 10 µM is at least 20%. Give NOT MET when it is less.

COC(=O)c1cccc(-c2cccc(NC(=O)c3ccc4c(c3)NC(=O)c3cc(F)ccc3S4)c2)c1 [Compound 1422] = MET

Query: Dear colleague, could you confirm whether O=C(Nc1cccc(-c2ccccc2)c1)c1cc2c(cc1F)Sc1ccccc1C(=O)N2 [Compound 1509] has activity at 10 µM at or above 20%?
Response: NOT MET

Query: Dear colleague, could you confirm whether Cc1cccc(CNC(=O)c2ccc3c(c2)NC(=O)c2ccccc2S3(=O)=O)c1 [Compound 1621] has activity at 10 µM at or above 20%?
Response: NOT MET

Query: Dear colleague, could you confirm whether CCOc1ccccc1CCNC(=O)c1ccc2c(c1)NC(=O)c1ccccc1S2 [Compound 1156] has activity at 10 µM at or above 20%?
Response: NOT MET

Query: Dear colleague, could you confirm whether CN(C)S(=O)(=O)c1ccc(CCNC(=O)c2ccc3c(c2)NC(=O)c2ccc(F)cc2S3)cc1 [Compound 1387] has activity at 10 µM at or above 20%?
Response: NOT MET

Query: Dear colleague, could you confirm whether O=C(NCCc1nnc[nH]1)c1ccc2c(c1)NC(=O)c1ccccc1S2 [Compound 1551] has activity at 10 µM at or above 20%?
Response: MET

Query: Dear colleague, could you confirm whether O=C(Nc1ccc(F)cc1)c1ccc2c(c1)NC(=O)c1cc(F)ccc1S2 [Compound 1316] has activity at 10 µM at or above 20%?
Response: MET

Query: Dear colleague, could you confirm whether O=C(NCCc1cncs1)c1ccc2c(c1)NC(=O)c1cc(F)ccc1S2 [Compound 1418] has activity at 10 µM at or above 20%?
Response: NOT MET
